# target-or-system: CAMK2D (human)
# test-name: Caliper, Mobility shift assay off-chip
# stated-conditions: compound 0.1 µM
Measured inhibition, listed per entry.

>  <molecule>
Cn1cc(-c2cnc3ccc4ccc(CS(=O)(=O)CCc5ccccn5)cc4c(=O)c3c2)cn1

>  <inhibition>
-16.1%

$$$$
>  <molecule>
Cn1cc(-c2cnc3ccc4ccc(CS(=O)(=O)NCC5CCCCN5)cc4c(=O)c3c2)cn1 (stereo unspecified)

>  <inhibition>
32%

$$$$
>  <molecule>
Cn1cc(-c2cnc3ccc4ccc(CS(N)(=O)=O)cc4c(=O)c3c2)cn1

>  <inhibition>
4.9%

$$$$
>  <molecule>
Cn1cc(-c2cnc3ccc4ccc(CS(=O)(=O)NC5CCCCC5)cc4c(=O)c3c2)cn1

>  <inhibition>
-6.5%

$$$$
>  <molecule>
O=C(CCc1ccc2ccc3ncc(C4CCNCC4)cc3c(=O)c2c1)NCc1ccccn1

>  <inhibition>
-22.5%

$$$$
>  <molecule>
O=c1c2cc(CS(=O)(=O)NCc3ccccn3)ccc2ccc2ncc(C3CCNCC3)cc12

>  <inhibition>
13.2%

$$$$

---

# target-or-system: PRKCA (human)
# test-name: Caliper, Mobility shift assay off-chip
# stated-conditions: compound 1.0 µM

>  <compound>
Cn1cc(-c2cnc3ccc4ccc(CS(=O)(=O)NCC5CCCCN5)cc4c(=O)c3c2)cn1 (centres undefined)

>  <target-or-system>
PRKCA (human)

>  <unit-abbreviation>
%

>  <inhibition>
-0.1

$$$$
>  <compound>
Cn1cc(-c2cnc3ccc4ccc(CS(=O)(=O)CCc5ccccn5)cc4c(=O)c3c2)cn1

>  <target-or-system>
PRKCA (human)

>  <unit-abbreviation>
%

>  <inhibition>
-3

$$$$
>  <compound>
CN(c1ccc2ccc3ncc(-c4cnn(C)c4)cc3c(=O)c2c1)S(=O)(=O)NCc1ccccn1

>  <target-or-system>
PRKCA (human)

>  <unit-abbreviation>
%

>  <inhibition>
-10.6

$$$$
>  <compound>
O=C(CCc1ccc2ccc3ncc(C4CCNCC4)cc3c(=O)c2c1)NCc1ccccn1

>  <target-or-system>
PRKCA (human)

>  <unit-abbreviation>
%

>  <inhibition>
15.8

$$$$

---

# target-or-system: PRKCE (human) (UniProt Q02156)
# Sequence (Q02156 whole entry, looked up): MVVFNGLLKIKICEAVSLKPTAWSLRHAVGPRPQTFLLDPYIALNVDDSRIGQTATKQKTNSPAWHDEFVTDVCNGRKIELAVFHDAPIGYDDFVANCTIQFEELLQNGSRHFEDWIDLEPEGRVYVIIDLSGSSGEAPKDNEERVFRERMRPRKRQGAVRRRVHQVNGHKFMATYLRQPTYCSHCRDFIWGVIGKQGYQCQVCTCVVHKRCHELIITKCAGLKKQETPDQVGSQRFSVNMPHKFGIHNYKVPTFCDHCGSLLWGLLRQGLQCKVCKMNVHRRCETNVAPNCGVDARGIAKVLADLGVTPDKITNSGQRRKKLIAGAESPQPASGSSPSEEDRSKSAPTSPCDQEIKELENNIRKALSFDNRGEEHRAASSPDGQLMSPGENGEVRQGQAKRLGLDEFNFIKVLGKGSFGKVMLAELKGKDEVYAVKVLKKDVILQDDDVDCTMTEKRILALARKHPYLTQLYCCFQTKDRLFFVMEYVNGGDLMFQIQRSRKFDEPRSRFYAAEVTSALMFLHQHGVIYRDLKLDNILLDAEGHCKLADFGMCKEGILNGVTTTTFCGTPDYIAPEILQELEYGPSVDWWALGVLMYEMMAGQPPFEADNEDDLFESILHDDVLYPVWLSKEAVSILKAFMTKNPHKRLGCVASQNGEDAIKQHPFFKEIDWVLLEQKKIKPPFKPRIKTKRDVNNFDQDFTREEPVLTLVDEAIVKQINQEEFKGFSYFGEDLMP
# test-name: Caliper, Mobility shift assay off-chip
# stated-conditions: compound 1.0 µM

>  <compound>
CN(c1ccc2ccc3ncc(-c4cnn(C)c4)cc3c(=O)c2c1)S(=O)(=O)NCc1ccccn1

>  <target-or-system>
PRKCE (human) (UniProt Q02156)

>  <inhibition [%]>
3.9

$$$$
>  <compound>
Cn1cc(-c2cnc3ccc4ccc(CS(=O)(=O)NCC5CCCCN5)cc4c(=O)c3c2)cn1 (stereo not given)

>  <target-or-system>
PRKCE (human) (UniProt Q02156)

>  <inhibition [%]>
-5.1

$$$$
>  <compound>
O=C(CCc1ccc2ccc3ncc(C4CCNCC4)cc3c(=O)c2c1)NCc1ccccn1

>  <target-or-system>
PRKCE (human) (UniProt Q02156)

>  <inhibition [%]>
-0.4

$$$$
>  <compound>
Cn1cc(-c2cnc3ccc4ccc(CS(=O)(=O)CCc5ccccn5)cc4c(=O)c3c2)cn1

>  <target-or-system>
PRKCE (human) (UniProt Q02156)

>  <inhibition [%]>
1.1

$$$$
>  <compound>
Cn1cc(-c2cnc3ccc4ccc(CS(N)(=O)=O)cc4c(=O)c3c2)cn1

>  <target-or-system>
PRKCE (human) (UniProt Q02156)

>  <inhibition [%]>
5.9

$$$$
